Recorded unfolding free energy values for a group of variants are listed next.
B1: Subtilisin-chymotrypsin inhibitor-2A, P01053 (parent)
chain: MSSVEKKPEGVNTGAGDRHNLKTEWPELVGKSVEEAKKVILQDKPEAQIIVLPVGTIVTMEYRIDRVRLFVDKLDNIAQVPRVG

# Variants of: B1
# Test settings: Hordeum vulgare; pH 6.25; 25 °C; GdnHCl; Fluorescence; MES 50 mM; reversible: yes; structure 2CI2; whole UniProt chain shown
Measured attribute: unfolding free energy (kcal/mol)

[[record]]
mutation_annotation = "E35D"
unit_text = "kcal/mol"
obs_value = 7.96

[[record]]
mutation_annotation = "E27A"
unit_text = "kcal/mol"
obs_value = 6.57

[[record]]
mutation_annotation = "L52V V58A"
unit_text = "kcal/mol"
obs_value = 5.67

[[record]]
mutation_annotation = "E61A"
unit_text = "kcal/mol"
obs_value = 6.48

[[record]]
mutation_annotation = "R63A"
unit_text = "kcal/mol"
obs_value = 6.58

[[record]]
mutation_annotation = "S32G E34A E35A"
unit_text = "kcal/mol"
obs_value = 6.79

[[record]]
mutation_annotation = "P45A"
unit_text = "kcal/mol"
obs_value = 6.38

[[record]]
mutation_annotation = "L52A F70L"
unit_text = "kcal/mol"
obs_value = 4.35

[[record]]
mutation_annotation = "P26A A36G"
unit_text = "kcal/mol"
obs_value = 6.3

[[record]]
mutation_annotation = "F70A"
unit_text = "kcal/mol"
obs_value = 4.39

[[record]]
mutation_annotation = "L52A V58A F70L"
unit_text = "kcal/mol"
obs_value = 4.26

